# Test: Dynamic glucose enhanced (DGE) onVDMP MRI at 11.7 T of glucose uptake in brain parenchyma and CSF of WT and Tau mice
# Assay type: in vivo, mouse
# Settings: female, Tau4RΔK, mouse, iv, 0.15 mL of 50% w/w glucose (0.5 g/mL); Tau mice, CSF; read-out: uptake half-life time of CSF
Assay Readout: half-life
Value and unit, in that order.

Exercise: Please give the measured half-life for this compound: O=C[C@H](O)[C@@H](O)[C@H](O)[C@H](O)CO [D-glucose]
Key: 7.8 min

----------
# Test: Dynamic glucose enhanced (DGE) onVDMP MRI at 11.7 T of glucose uptake in brain parenchyma and CSF of WT and Tau mice
# Assay type: in vivo, mouse
# Settings: female, C57BL/6J, mouse, intravenous, 0.15 mL of 50% w/w glucose (0.5 g/mL); brain tissue of WT mice, as restated in discussion; read-out: half-life time of glucose uptake obtained by the onVDMP method
Assay Readout: half-life (min)
Report the figure in min without appending any unit label.

Exercise: Please give the measured half-life for this compound: O=C[C@H](O)[C@@H](O)[C@H](O)[C@H](O)CO
Key: 4.71

----------
# Test: Validation of glucose uptake in brain using an MRS method
# Type: in vivo
# Settings: mouse, intravenous, BALB/c mice, read-out: half-life time of glucose uptake measured by MRS
Assay Readout: half-life (min)
Report the figure in min without appending any unit label.

Exercise: Please give the measured half-life for this compound: O=C[C@H](O)[C@@H](O)[C@H](O)[C@H](O)CO
Key: 4.16

----------
# Test: Dynamic glucose enhanced (DGE) onVDMP MRI at 11.7 T of glucose uptake in brain parenchyma and CSF of WT and Tau mice
# Assay type: in vivo, mouse
# Settings: female, C57BL/6J, mouse, brain parenchyma (cortex), iv, 0.15 mL of 50% w/w glucose (0.5 g/mL); WT mice, cortex; read-out: uptake half-life time of parenchyma
Assay Readout: half-life (min)
Report the figure in min without appending any unit label.

Exercise: Please give the measured half-life for this molecule: O=C[C@H](O)[C@@H](O)[C@H](O)[C@H](O)CO [D-glucose]
Key: 4.71

----------
# Test: Dynamic glucose enhanced (DGE) onVDMP MRI at 11.7 T of glucose uptake in brain parenchyma and CSF of WT and Tau mice
# Format: in vivo, mouse
# Settings: female, C57BL/6J, mouse, iv, 0.15 mL of 50% w/w glucose (0.5 g/mL); WT mice, CSF; read-out: uptake half-life time of CSF
Assay Readout: half-life (min)
Report the figure in min without appending any unit label.

Exercise: Please give the measured half-life for this molecule: O=C[C@H](O)[C@@H](O)[C@H](O)[C@H](O)CO
Key: 1.24
